Attribution: PubChem BioAssay AID2060892

# System: HOP-62 complex spheroids with HUVEC/MSC, viability
# protocol summary: Anticancer human tumor HOP-62 cell line growth inhibition [RAS];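 further: spheroids exposed to agents for seven days before readout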
# assay conditions: second compound 0.01 µM; first compound 0.00316 µM; active compounds read low
viability, T/C strictly less than 60% = rule met. Otherwise rule not met.

Below, 3 compounds whose answers are already recorded.
compound | answer label
O=C(c1ccc(F)c(F)c1Nc1ccc(I)cc1F)N1CC(O)([C@@H]2CCCCN2)C1 + C=CC(=O)N1CCN(c2nc(OCC3CCCN3C)nc3c(F)c(-c4nc(N)cc(C)c4C(F)(F)F)c(Cl)cc23)C(C)C1 | rule not met
C=CC(=O)Nc1cc(Nc2nccc(-c3cn(C)c4ccccc34)n2)c(OC)cc1N(C)CCN(C)C + C=CC(=O)N1CCN(c2nc(OCC3CCCN3C)nc3c(F)c(-c4nc(N)cc(C)c4C(F)(F)F)c(Cl)cc23)C(C)C1 | rule not met
CC(C)n1nc(-c2ccc3oc(N)nc3c2)c2c(N)ncnc21 + C=CC(=O)N1CCN(c2nc(OCC3CCCN3C)nc3c(F)c(-c4nc(N)cc(C)c4C(F)(F)F)c(Cl)cc23)C(C)C1 | rule met

Next up:
Strictly below 60% in viability, T/C? CCN1CCN(Cc2ccc(Nc3ncc(F)c(-c4cc(F)c5nc(C)n(C(C)C)c5c4)n3)nc2)CC1 + C=CC(=O)N1CCN(c2nc(OCC3CCCN3C)nc3c(F)c(-c4nc(N)cc(C)c4C(F)(F)F)c(Cl)cc23)C(C)C1
rule not met
